# Test system: BRSK2
# assay-conditions: concentration: 1 μM, replicates: in singlicate; n = 1;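 note: KINOMEscan kinase panel screen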
%Inh values by entry
Kindly provide the numeric value in % only, without the unit symbol.

compound	value-type	assay-result
O=c1cc(N2CCOCC2)nc2n(Cc3cccc(C(F)(F)F)c3)ccn12	%Inh	7
COc1cc(Nc2nccc(N3CCC(NC(=O)c4cccc(NC(C)=O)c4)C3)n2)cc(OC)c1OC (stereo not shown)	%Inh	0
Cn1cc(-c2ccc3c(c2)CCN3C(=O)Cc2ccccc2Cl)c2c(N)ncnc21	%Inh	6

Request: # value lookup — system BRSK2, readout %Inh, item CC(C)(C)n1cnc2c(N)ncnc21
Response: 3

Request: # value lookup — system BRSK2, readout %Inh, item CNc1ncnc2[nH]ncc12
Response: 0

Request: # value lookup — system BRSK2, readout %Inh, item NS(=O)(=O)CCc1cccc(Nc2nccc(-c3c(-c4cccc(NC(=O)c5c(F)cccc5F)c4)nn4ccccc34)n2)c1
Response: 20

Request: # value lookup — system BRSK2, readout %Inh, item COc1ccc(Nc2nccc(N3CCC(NC(=O)Nc4cccc(C(C)=O)c4)C3)n2)cc1 (stereo not shown)
Response: 0

Request: # value lookup — system BRSK2, readout %Inh, item O=c1cc(N2CCOCC2)nc2n(Cc3cccc(Cl)c3Cl)c(C3CC3)nn12
Response: 0

Request: # value lookup — system BRSK2, readout %Inh, item N#Cc1ccc(-c2cc(-c3c[nH]nc3-c3ccccn3)ccn2)cc1
Response: 0

----------
# System: ACVRL1
# assay-conditions: concentration: 1 μM, replicates: in singlicate; n = 1
value-type: %Inh

Solved cases (3 shown):
compound	%Inh
Cc1cn2c(=O)cc(N3CCOCC3)nc2n1Cc1cccc(Cl)c1Cl	0%
COCCNC(=O)c1ccc(-c2cc(C(=O)NC3CC3)cc(F)c2C)cc1	9%
CC(=O)Nc1ccc(COc2ccc(Nc3ccnc4cc(-c5ccccn5)ccc34)cc2)cc1.Cl	3%

Request: # value lookup — system ACVRL1, readout %Inh, item COc1ccc(Nc2ncc(C#N)c(Nc3ccccc3C(N)=O)n2)cc1N1CCN(C)CC1.Cl
Response: 0%

Request: # value lookup — system ACVRL1, readout %Inh, item CCc1nc(-c2cccc(C)c2)c(-c2ccnc(NCc3ccccc3)c2)s1
Response: 0%

Request: # value lookup — system ACVRL1, readout %Inh, item CCCCCc1nc2c(N)ncnc2n1CCCCC
Response: 13%

Request: # value lookup — system ACVRL1, readout %Inh, item Cc1cccc(Cn2ccn3c(=O)cc(N4CCOCC4)nc23)c1
Response: 6%

Request: # value lookup — system ACVRL1, readout %Inh, item N#Cc1c(N2CCOCC2)sc(-c2ccn[nH]2)c1-c1ccc(Cl)cc1
Response: 0%

Request: # value lookup — system ACVRL1, readout %Inh, item Cc1c(Cn2c(C)nn3c(=O)cc(N4CCOC(C)C4)nc23)cccc1C(F)(F)F (stereo not shown)
Response: 5%

Request: # value lookup — system ACVRL1, readout %Inh, item COc1ccc(CNC(=O)NC2CCN(c3ccnc(Nc4ccc(OC)cc4)n3)C2)cc1 (stereo not shown)
Response: 0%

----------
# Tested on: HASPIN
# Construct: gene GSG2
# assay-conditions: concentration: 1 μM, replicates: in singlicate; n = 1
%Inh values by entry
Kindly provide the numeric value in % only, without the unit symbol.

compound	unit-abbreviation	%Inh
O=C(Nc1n[nH]c2cc(-c3cccc(F)c3)ccc12)C1CC1	%	30
C[C@@H](Oc1cc(-n2cnc3ccc(NC(=O)NC(C)(C)C)cc32)sc1C(N)=O)c1ccccc1Cl	%	1
Cl.Nc1ncnc2occ(-c3ccc(NC(=O)Nc4cc(C(F)(F)F)ccc4F)cc3)c12	%	0
CCc1nc(-c2cccc(C)c2)c(-c2ccnc(NCc3ccccc3)c2)s1	%	41
CC(C)Oc1ccc2c(-c3ccnc(Nc4ccc(N5CCN(C)CC5)cc4)n3)cnn2n1	%	70
CN(C(=O)c1ccc(-c2cc(-c3c[nH]nc3-c3ccccn3)ccn2)cc1)C1CCOCC1	%	0
COCCNC(=O)c1ccc(-c2cc(C(=O)NC3CC3)cc(F)c2C)cc1	%	0

Read the next record carefully.
Request: Record request: %Inh value, item Cn1ccc2ncnc(Oc3ccc(NC(=O)Nc4ccncc4)c(Cl)c3)c21
Response: 28

----------
# System: MAP4K4
# assay-conditions: concentration: 1 μM, replicates: in singlicate; n = 1
value-type: %Inh (%)
Kindly provide the numeric value in % only, without the unit symbol.

Solved cases (4 shown):
compound	unit-abbreviation	%Inh
Cc1nnc(-c2ccc(C)c(-c3ccc(C(=O)Nc4ccc(NS(C)(=O)=O)cc4)cc3)c2)o1	%	0
COC(=O)Nc1nc2cc(Oc3ccc(NC(=O)Nc4cc(F)ccc4F)cc3)ccc2[nH]1.Cl	%	0
Cc1ccc(C(=O)NCC(N)=O)cc1-n1c(C)cc(OCc2ccc(F)cc2F)c(Br)c1=O	%	4
CCc1nc(-c2cccc(C)c2)c(-c2ccnc(NCc3ccccc3)c2)s1	%	12

Request: Record request: %Inh value, item CN(C1=C(c2ccccc2)C(=O)NC1=O)c1ccccc1
Response: 16

Request: Record request: %Inh value, item N#Cc1ccc(-c2cc(-c3c[nH]nc3-c3ccccn3)ccn2)cc1
Response: 46

Request: Record request: %Inh value, item Cl.Oc1cccc(Nc2ccnc3cc(-c4ccncc4)ccc23)c1
Response: 47

Request: Record request: %Inh value, item O=C(NCCNc1ccnc(Nc2ccc(F)cc2)n1)c1cc2ccccc2s1
Response: 0

Request: Record request: %Inh value, item [2H]C([2H])(c1cccc(C(F)(F)F)c1C)n1ccn2c(=O)nc(N3CCOCC3)cc12
Response: 6

Request: Record request: %Inh value, item COc1cc2c(cc1OC[C@@H](O)CO)ncc1c3ccc(C#N)cc3[nH]c21
Response: 27

Request: Record request: %Inh value, item CCn1cnc2c(N)ncnc21
Response: 0

Request: Record request: %Inh value, item O=c1cc(N2CCOCC2)nc2n(Cc3cccc(Cl)c3Cl)c(C3CC3)nn12
Response: 0

Request: Record request: %Inh value, item Cc1cccc(-c2nc(-c3ccc(S(C)(=O)=O)cc3)sc2-c2ccncc2)c1
Response: 30

Request: Record request: %Inh value, item NS(=O)(=O)c1cccc(-c2ccc3nccc(-c4cccc(S(N)(=O)=O)c4)c3c2)c1
Response: 0

Request: Record request: %Inh value, item CSc1ccc(-c2cc3ncnc(SCC(=O)O)c3s2)cc1
Response: 0

Request: Record request: %Inh value, item Cc1ccc(NC(=O)c2ccnc(N3CCN(C)CC3)c2)cc1-c1ccc(C(=O)NCC2CC2)cc1
Response: 0

Request: Record request: %Inh value, item COc1cc2c(cc1OCCN1CCN(C)CC1)ncc1c3ccc(C#N)cc3[nH]c21
Response: 59

Request: Record request: %Inh value, item COc1ccc(S(=O)(=O)NC2CCN(c3cc(C)nc(Nc4cccc(C#N)c4)n3)CC2)cc1.O=C(O)C(F)(F)F
Response: 0

----------
# System: MLK3
# assay-conditions: concentration: 1 μM, replicates: in singlicate; n = 1
value-type: %Inh

compound	%Inh
COc1ccc(S(=O)(=O)NC2CCN(c3cc(C)nc(Nc4cccc(C#N)c4)n3)CC2)cc1.O=C(O)C(F)(F)F [GSK1653539]	27%
Cc1c2ccc(N(C)c3ccnc(Nc4cccc(S(N)(=O)=O)c4)n3)cc2nn1Cc1ccccc1.Cl.Cl [GW787226]	26%
CC(C)Oc1ccc2c(-c3ccnc(Nc4ccc(N5CCN(C)CC5)cc4)n3)cnn2n1 [GW696155]	0%
Cc1cccc(Cn2ccn3c(=O)cc(N4CCOCC4)nc23)c1 [GSK2297542]	18%
Cl.Oc1cccc(Nc2ccnc3cc(-c4ccncc4)ccc23)c1 [GW494601]	1%

Request: Record request: %Inh value, item CCc1ccnc(/C=C/c2n[nH]c3cc(Sc4ccccc4C(=O)NC)ccc23)c1
Response: 20%

Request: Record request: %Inh value, item NS(=O)(=O)c1cccc(-c2ccc3nccc(-c4cccc(S(N)(=O)=O)c4)c3c2)c1 [GW867253]
Response: 0%

Request: Record request: %Inh value, item O=c1cc(N2CCOCC2)nc2n(Cc3cccc(Cl)c3Cl)c(C3CC3)nn12 [GSK2358994]
Response: 14%

Request: Record request: %Inh value, item O=C1NC(=O)C(N2CCc3ccccc32)=C1c1cccc(Cl)c1 [SB-408010]
Response: 0%

Request: Record request: %Inh value, item O=C(NOCC1CC1)c1ccc(F)c(F)c1Nc1ccc(I)cc1Cl
Response: 0%

Request: Record request: %Inh value, item [2H]C([2H])(c1cccc(C(F)(F)F)c1C)n1ccn2c(=O)nc(N3CCOCC3)cc12 [GSK2336394]
Response: 21%

Request: Record request: %Inh value, item NS(=O)(=O)c1cccc(-c2ccc3ncc(N4CCOCC4)nc3c2)c1 [GSK1535721]
Response: 1%

Request: Record request: %Inh value, item Cn1ccc2ncnc(Oc3ccc(NC(=O)Nc4ccncc4)c(Cl)c3)c21
Response: 0%

Request: Record request: %Inh value, item COc1cc(Nc2nccc(N3CCC(NC(=O)c4cccc(NC(C)=O)c4)C3)n2)cc(OC)c1OC (stereo not drawn) [GSK1379754]
Response: 53%

Request: Record request: %Inh value, item COc1cc2c(cc1OC[C@@H](O)CO)ncc1c3ccc(C#N)cc3[nH]c21
Response: 0%

Request: Record request: %Inh value, item CN(C1=C(c2ccccc2)C(=O)NC1=O)c1ccccc1 [SB-334860]
Response: 19%

Request: Record request: %Inh value, item O=C(NCCCN1CCOCC1)c1cccc(Nc2nccc(Nc3ccc(Oc4ccccc4)cc3)n2)c1 [GW663929]
Response: 18%

Request: Record request: %Inh value, item CN1c2ccc(CNc3ccc(F)cc3)cc2-c2c(cnn2C)S1(=O)=O
Response: 0%

Request: Record request: %Inh value, item NS(=O)(=O)CCc1cccc(Nc2nccc(-c3c(-c4cccc(NC(=O)c5c(F)cccc5F)c4)nn4ccccc34)n2)c1 [GSK336735]
Response: 43%

Request: Record request: %Inh value, item O=C(NCCNc1ccnc(Nc2ccc(F)cc2)n1)Nc1ccccc1F [GSK1379880]
Response: 0%
